Tested on: K. pneumoniae NB29017
Experiment: Qualitative inhibition of mucoid appearance of colonies on solid LB agar
Format: cell-based, Klebsiella pneumoniae
Settings: 2 μg/mL compound in agar; 4 fully mucoid, 0 nonmucoid, by eye
PARAMETER: qualitative score on solid medium
// return just the number, without any unit appended

Cc1cc(C)c2c(=O)cc(C(=O)Nc3nc4ccc(F)cc4s3)oc2c1    3
CCOc1cccc(C(=O)Nc2ccc(-c3nc4ccccc4[nH]3)cc2)c1    2
CCCCNC(=O)NS(=O)(=O)c1cccs1    4

Reported qualitative score on solid medium, molecule O=C(/C=C/c1ccccc1)Nc1ccc(C(=O)Nc2nccs2)cc1 : ____ 1

Lookup CC12CC3(C)CC(C(=O)O)(C1)CC(C(=O)O)(C2)C3 3

Subsequent entry: CCOc1ccc2nc(NC(=O)c3cc(=O)c4ccc(C)cc4o3)sc2c1 2

Also COc1ccc2nc(NC(=O)c3cc(=O)c4ccccc4o3)sc2c1 , if possible. 0

And COc1ccc(Br)c(/C=N/NC(=O)COc2ccc(-c3ccccc3)cc2)c1 ? 0

###

System: K. pneumoniae NB29017
Experiment: Qualitative inhibition of mucoid appearance of colonies on solid LB agar
Format: cell-based, Klebsiella pneumoniae
Details: 2 μg/mL compound in agar; 4 fully mucoid, 0 nonmucoid, by eye
PARAMETER: qualitative score on solid medium

O=C(Nc1nnc(Cl)s1)c1ccco1    0
CCOC(=O)c1ccc2nc(NC(=O)c3cccs3)sc2c1    0
CCOc1ccc2nc(NC(=O)c3ccc4ncsc4c3)sc2c1    0
C=CCSc1nnc(C)c(O)n1 [D1, C=CCSc1nnc(C)c(O)n1, reference compound]    4

Turning to the following compound.
Please state recorded qualitative score on solid medium (tested on K. pneumoniae NB29017) of COc1ccc(-c2csc(NC(=O)c3ccc(C(=O)Nc4nc(-c5ccc(OC)c(OC)c5)cs4)s3)n2)cc1OC 0

###

hemolysis at 1 h overview
Assay: Red blood cell hemolysis
Assay type: cell-based, sheep
Settings: sheep, erythrocytes from defibrinated sheep blood, pH 7.5
Give the number; % is assumed, so skip it.

CCOC(=O)c1ccc2nc(NC(=O)c3cccs3)sc2c1 [compound 64, CCOC(=O)c3ccc2N=C(NC(=O)C1=CC=CS1)Sc2c3]    14.9
CCOc1ccc2nc(NC(=O)c3ccc4ncsc4c3)sc2c1 [compound 74, CCOc4ccc3N=C(NC(=O)c2ccc1N=CSc1c2)Sc3c4]    26.9
O=C(CCCN1CCC(O)(c2ccc(Br)cc2)CC1)c1ccc(F)cc1 [compound 185]    4.5
O=C(/C=C/c1ccccc1)Nc1ccc(C(=O)Nc2nccs2)cc1 [compound 70]    17.6
O=[N+]([O-])c1cnc2ccc(Cl)cc2c1O [compound 182, [O-][N+](=O)c2cnc1ccc(Cl)cc1c2O]    2.4

Give its hemolysis at 1 h value. Item: COc1ccc(-c2csc(NC(=O)c3ccc(C(=O)Nc4nc(-c5ccc(OC)c(OC)c5)cs4)s3)n2)cc1OC [compound 62] 11.7

What do you have for CCN(CC)/C(N)=N\c1ccc(NC(=O)c2ccc(C(=O)Nc3ccc(/N=C(\N)N(CC)CC)cc3)cc2)cc1 [compound 170] ? 1.9

Follow-up item: Cc1cc(C)c2c(=O)cc(C(=O)Nc3nc4ccc(F)cc4s3)oc2c1 [compound 68] 2.2

What do you get for C=CC1(C)CC(OC(=O)CSc2ccc(N)cc2)C2(C)C(C)CCC3(CCC(=O)C32)C(C)C1O (stereo not shown) [compound 191] ? 2

Please answer likewise for CCOc1cccc(C(=O)Nc2ccc(-c3nc4ccccc4[nH]3)cc2)c1 [compound 79] 40.6
